Cited source: patent US20100260765A1

- SYSTEM_UNDER_TEST: T1, soluble KDR extracellular domain (ECD) (Calbiochem) (human, UniProt P35968 20-764)
- T1 construct: extracellular domain; Bought protein; also called KDR-ECD; VEGF Receptor 2 D1-7, Cat. #676490
- METHOD_DESCRIPTION: High Antigen ELISA, KDR coat 500 ng/mL, supernatant 1:6075
EXPERIMENTAL_READOUT: ELISA reading

Below, each entry is followed by its recorded ELISA reading result.
BINDER: 24B3 (antibody, V domains shown, Fully human mAb from XenoMouse hybridoma, tested as hybridoma supernatant) VH: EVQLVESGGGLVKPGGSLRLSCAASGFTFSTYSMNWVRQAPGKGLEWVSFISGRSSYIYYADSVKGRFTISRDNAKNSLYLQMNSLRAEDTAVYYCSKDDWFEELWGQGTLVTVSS VL: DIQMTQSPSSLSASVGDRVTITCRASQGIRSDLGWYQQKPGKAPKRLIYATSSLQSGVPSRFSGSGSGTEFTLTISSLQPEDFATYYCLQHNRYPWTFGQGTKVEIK
ELISA reading: 0.13
--
BINDER: 22B8 (antibody, V domains shown, Fully human mAb from XenoMouse hybridoma, tested as hybridoma supernatant) VH: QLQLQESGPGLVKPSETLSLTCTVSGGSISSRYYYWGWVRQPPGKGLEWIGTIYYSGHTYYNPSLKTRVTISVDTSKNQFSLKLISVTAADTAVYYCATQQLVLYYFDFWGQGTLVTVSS VL: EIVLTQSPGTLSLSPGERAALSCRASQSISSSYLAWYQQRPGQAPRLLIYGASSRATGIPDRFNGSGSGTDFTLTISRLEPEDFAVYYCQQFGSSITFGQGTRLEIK
ELISA reading: 0.31
--
BINDER: 29H3 (antibody, V domains shown, Fully human mAb from XenoMouse hybridoma, tested as hybridoma supernatant) VH: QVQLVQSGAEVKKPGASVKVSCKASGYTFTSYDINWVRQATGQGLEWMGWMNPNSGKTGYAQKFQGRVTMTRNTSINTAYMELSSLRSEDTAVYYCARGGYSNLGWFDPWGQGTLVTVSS VL: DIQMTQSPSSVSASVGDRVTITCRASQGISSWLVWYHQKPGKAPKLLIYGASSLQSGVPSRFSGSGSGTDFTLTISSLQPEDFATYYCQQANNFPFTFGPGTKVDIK
ELISA reading: 0.47

Moving on to another binder below.
Briefly, ELISA reading measured for 21H9 (antibody, V domains shown, Fully human mAb from XenoMouse hybridoma, tested as hybridoma supernatant) VH: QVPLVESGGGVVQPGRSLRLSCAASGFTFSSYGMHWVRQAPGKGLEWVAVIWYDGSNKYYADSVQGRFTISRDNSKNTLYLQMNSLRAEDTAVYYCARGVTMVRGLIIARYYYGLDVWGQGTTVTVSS VL: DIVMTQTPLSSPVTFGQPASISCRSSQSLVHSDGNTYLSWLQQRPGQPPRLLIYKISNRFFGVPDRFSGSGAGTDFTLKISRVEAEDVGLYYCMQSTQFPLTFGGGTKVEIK : 0.26
